Consider the following molecules and their measured log10 IC50 readings.
biological target: UniProt:P49137; test: Determination of MK-2 IC50 (HSP-peptide phosphorylation, anion exchange resin capture assay); assay type: biochemical; settings: Table 2, pyrazolylpyrazole MK-2 inhibitors; read-out: MK-2 Avg. IC50
Sequence (P49137 whole entry, species assumed): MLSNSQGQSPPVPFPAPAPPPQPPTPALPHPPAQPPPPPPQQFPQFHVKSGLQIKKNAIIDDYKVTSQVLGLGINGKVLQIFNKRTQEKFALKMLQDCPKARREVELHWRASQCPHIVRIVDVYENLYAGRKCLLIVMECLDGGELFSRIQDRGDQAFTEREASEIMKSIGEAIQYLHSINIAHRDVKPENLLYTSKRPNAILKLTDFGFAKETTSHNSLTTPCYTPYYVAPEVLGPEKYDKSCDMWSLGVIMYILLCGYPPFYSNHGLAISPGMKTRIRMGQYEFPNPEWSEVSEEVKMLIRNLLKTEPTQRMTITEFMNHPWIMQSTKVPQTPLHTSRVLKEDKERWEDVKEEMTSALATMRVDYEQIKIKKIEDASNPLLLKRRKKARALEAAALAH
In our notation, the value equals log10 of IC50 in µM.

The cases that follow already have their log10 IC50 on record.
>>> print(df.to_string())
                                   molecule  systemundertest  recordedmetric  measuredresult
0  CC(C)(C)OC(=O)NCCn1nc2c(c1C(=O)O)CCc1c-2cnn1C(c1ccccc1)(c1ccccc1)c1ccccc1 [Example 38]   UniProt:P49137      log10 IC50            2.14
1  CCOC(=O)c1c2c(nn1CCCN)-c1c(SC)n[nH]c1CC2 [Example 20]   UniProt:P49137      log10 IC50            1.74
2  O=C1NCCCn2nc3c(c21)CCc1[nH]ncc1-3 [Example 13]   UniProt:P49137      log10 IC50            1.29
3  C=CCn1nc(C(N)=O)c2c1-c1cn[nH]c1CC2 [Example 26]   UniProt:P49137      log10 IC50            1.98
4  O=C(O)c1c2c(nn1C1CCNCC1)-c1cn[nH]c1CC2 [Example 21]   UniProt:P49137      log10 IC50            1.78
5  NCCCCn1nc2c(c1C(=O)O)CCc1[nH]ncc1-2 [Example 10]   UniProt:P49137      log10 IC50            1.00
6  CCOC(=O)c1c2c(nn1CCCN)-c1c(SCc3ccccc3)n[nH]c1CC2 [Example 44]   UniProt:P49137      log10 IC50            2.26
7  N#CCCCn1nc2c(c1C(=O)O)CCc1[nH]ncc1-2 [Example 32]   UniProt:P49137      log10 IC50            2.06

Input NS(=O)(=O)c1ccc(-n2nc(C(=O)O)c3c2-c2cn[nH]c2CC3)cc1 [Example 40] . Output log10 IC50: 2.16

Input CS(=O)(=O)c1ccc(-n2nc(C(N)=O)c3c2-c2cn[nH]c2CC3)cc1 [Example 35] . Output log10 IC50: 2.09

Input CSc1n[nH]c2c1-c1nn(CCCN)c(C(=O)O)c1CC2 [Example 1] . Output log10 IC50: 0.03

Origin of the recorded values: patent US20040127492A1
